// normalized growth lookup, one value per entry
- measurement description: chemical genetic growth profiling, strain panel (AID 1159580);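 note: tested at 20 µM; growth read once vehicle control cultures reached saturation at 30 °C; 1 = growth at the plate median or of vehicle wells; lower values mean less growth of the strain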
- condition: S. cerevisiae deletion strains, growth OD, locus YKR026C, strain gcn3, stronger effect = lower value
The whole screen tested about 5,500 compounds, of which about 2,000 (36%) were called active. Roughly 18% stayed inconclusive and do not appear here. The list shows a part of the results.
parameter measured: normalized growth

[[record]]
compound = "NC(=O)N/N=C\\c1ccc([N+](=O)[O-])o1"
assay_value = 1

[[record]]
compound = "CCn1cc(C(=O)O)c(=O)c2cnc(N3CCNCC3)nc21"
assay_value = 1.01

[[record]]
compound = "O=C1CN(/N=C\\c2ccc([N+](=O)[O-])o2)C(=O)N1"
assay_value = 0.979

[[record]]
compound = "O=C(NC(=O)c1c(F)cccc1F)Nc1cc(Cl)c(OC(F)(F)C(F)C(F)(F)F)cc1Cl (stereo not drawn)"
assay_value = 0.989

[[record]]
compound = "CCn1cc(C(=O)O)c(=O)c2cc3c(cc21)OCO3"
assay_value = 0.987

[[record]]
compound = "CN(C)CCCO[C@H]1[C@@H](C(O)CO)OC2OC(C)(C)O[C@@H]21 (stereo partly drawn)"
assay_value = 0.991

[[record]]
compound = "O=C1N=C(O)CN1/N=C\\c1ccc(-c2ccc([N+](=O)[O-])cc2)o1"
assay_value = 0.99

[[record]]
compound = "COc1ccc(C[C@H](N)C(=O)N[C@@H]2[C@@H](CO)OC(n3cnc4c(N(C)C)ncnc43)[C@@H]2O)cc1 (stereo partly drawn)"
assay_value = 1

[[record]]
compound = "O=C(NC(Cc1cc(=O)[nH]c2ccccc12)C(=O)O)c1ccc(Cl)cc1 (stereo not drawn)"
assay_value = 0.994

[[record]]
compound = "CCCN(CCC)C(=O)C(CCC(=O)O)NC(=O)c1ccccc1 (stereo not drawn)"
assay_value = 0.974

[[record]]
compound = "COS(C)(=O)=O"
assay_value = 0.996

[[record]]
compound = "C[C@H](COc1ccccc1)N[C@H](C)[C@H](O)c1ccc(O)cc1"
assay_value = 0.993

[[record]]
compound = "CC(COc1ccccc1)N(CCCl)Cc1ccccc1 (stereo not drawn)"
assay_value = 0.985

[[record]]
compound = "CC1(C)C2CC(=O)O[C@@]3(C)C4=CC(=O)O[C@@H](c5ccoc5)[C@]4(C)CCC3[C@@]2(C)C=C[C@H]1O (stereo partly drawn)"
assay_value = 0.977

[[record]]
compound = "Nc1nc2ncc(CNc3ccc(C(=O)N[C@@H](CCC(=O)O)C(=O)O)cc3)nc2c(=O)[nH]1"
assay_value = 1

[[record]]
compound = "OC1CCCCC1N1CCC(c2ccccc2)CC1 (stereo not drawn)"
assay_value = 0.975

[[record]]
compound = "COC(=O)[C@H]1[C@H]2C[C@@H]3c4[nH]c5cc(OC)ccc5c4CCN3C[C@H]2C[C@@H](OC(=O)c2cc(OC)c(OC)c(OC)c2)[C@@H]1OC"
assay_value = 0.99

[[record]]
compound = "c1ccc2[nH]c(-c3cscn3)nc2c1"
assay_value = 1.02


====

- measurement description: chemical genetic growth profiling, strain panel (AID 1159580);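 note: tested at 20 µM; growth read once vehicle control cultures reached saturation at 30 °C; 1 = growth at the plate median or of vehicle wells; lower values mean less growth of the strain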
- condition: S. cerevisiae deletion strains, growth OD, locus YOR001W, strain rrp6
Among all 5,500 compounds or so, about 2,000 (36%) were called active. About 18% were inconclusive and are not listed. Cut-off read from the data, not from the text of the source: active = normalized growth mostly below about 0.91 (no sharp cut-off); inconclusive = no clear call, values can overlap the other calls; inactive = mostly above about 0.92. The list shows a part of the results.
Classes used: Yes for active, No for inactive

[[record]]
compound = "O=C1O[C@@H](CO)[C@H](O)[C@@H](O)[C@@H]1O"
class_assignment = "No"

[[record]]
compound = "CC1(C)CC2C1CCC1(C)OC1CCC2(C)O (centres undefined)"
class_assignment = "No"

[[record]]
compound = "CC[C@@]1(C2O[C@@H](C3O[C@@](O)(CC)[C@H](C)C[C@@H]3C)C[C@@H]2C)CC[C@H]([C@]2(C)CCC3(C[C@H](O)[C@@H](C)[C@@H]([C@H](C)[C@@H](OC)[C@H](C)C(=O)O)O3)O2)O1 (some centres undefined)"
class_assignment = "No"

[[record]]
compound = "O=C(O)c1cc(=O)c(O)c2c(O)c(O)c(O)cc2c1"
class_assignment = "Yes"


====

- measurement description: chemical genetic growth profiling, strain panel (AID 1159580);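 note: tested at 20 µM; growth read once vehicle control cultures reached saturation at 30 °C; 1 = growth at the plate median or of vehicle wells; lower values mean less growth of the strain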
- condition: S. cerevisiae deletion strains, growth OD, locus YOR070C, strain gyp1, stronger effect = lower value
Out of some 5,500 compounds screened, about 2,000 (36%) were called active. Inconclusive results (about 18%) are left out. Some of the results follow.
parameter measured: normalized growth

[[record]]
compound = "NC(=O)c1cnccn1"
parameter_measured = "normalized growth"
assay_value = 1

[[record]]
compound = "NC(=O)c1ccc(N)nc1"
parameter_measured = "normalized growth"
assay_value = 0.993

[[record]]
compound = "O=C(O)c1ccc2c(c1)OCO2"
parameter_measured = "normalized growth"
assay_value = 0.999

[[record]]
compound = "NC(=O)c1cc[n+](CC2=C(C(=O)O)N3C(=O)C(NC(=O)C(c4ccccc4)S(=O)(=O)[O-])C3SC2)cc1 (configuration not stated)"
parameter_measured = "normalized growth"
assay_value = 1.01

[[record]]
compound = "CC1=CC(=O)CC(C)(C)C1(O)/C=C/C(C)=C\\C(=O)O (configuration not stated)"
parameter_measured = "normalized growth"
assay_value = 1.01

[[record]]
compound = "Nc1nc(N)c2nc(CNc3ccc(C(=O)NC(CCC(=O)O)C(=O)O)cc3)cnc2n1 (configuration not stated)"
parameter_measured = "normalized growth"
assay_value = 0.997

[[record]]
compound = "CC12CCCC(O)(C1)C1CC(C)(C)C1CC2 (configuration not stated)"
parameter_measured = "normalized growth"
assay_value = 0.975

[[record]]
compound = "O=C(NC(=O)c1c(F)cccc1F)Nc1cc(Cl)c(OC(F)(F)C(F)C(F)(F)F)cc1Cl (configuration not stated)"
parameter_measured = "normalized growth"
assay_value = 0.989

[[record]]
compound = "COc1ccc2c(c1O)-c1c(OC)c(OC)cc3c1[C@H](C2)N(C)CC3"
parameter_measured = "normalized growth"
assay_value = 0.989

[[record]]
compound = "COc1ccc(-c2cc(C(F)F)nn2-c2ccc(S(N)(=O)=O)cc2)cc1F"
parameter_measured = "normalized growth"
assay_value = 1

[[record]]
compound = "NCCCCN=C(N)N"
parameter_measured = "normalized growth"
assay_value = 1.02

[[record]]
compound = "Nc1nc2c(c(=O)[nH]1)N(C=O)C(CNc1ccc(C(=O)N[C@@H](CCC(=O)O)C(=O)O)cc1)CN2 (some centres not stated)"
parameter_measured = "normalized growth"
assay_value = 0.991

[[record]]
compound = "CN(C)CCCO[C@H]1[C@@H](C(O)CO)OC2OC(C)(C)O[C@@H]21 (some centres not stated)"
parameter_measured = "normalized growth"
assay_value = 0.99

[[record]]
compound = "CCn1cc(C(=O)O)c(=O)c2cnc(N3CCNCC3)nc21"
parameter_measured = "normalized growth"
assay_value = 1.02

[[record]]
compound = "COc1ccc(/C=C/C(=O)O)cc1OC"
parameter_measured = "normalized growth"
assay_value = 0.999

[[record]]
compound = "CCC(COC(=O)c1cc(OC)c(OC)c(OC)c1)(c1ccccc1)N(C)C (configuration not stated)"
parameter_measured = "normalized growth"
assay_value = 0.978

[[record]]
compound = "CCOc1ccc2c(c1)C(C)=CC(C)(C)N2"
parameter_measured = "normalized growth"
assay_value = 0.995

[[record]]
compound = "CCn1cc(C(=O)O)c(=O)c2cnc(N3CCCC3)nc21"
parameter_measured = "normalized growth"
assay_value = 1.01

[[record]]
compound = "CCCc1cc(OC)c2c(c1)OCO2"
parameter_measured = "normalized growth"
assay_value = 0.997

[[record]]
compound = "O=C(O)P(=O)(O)O"
parameter_measured = "normalized growth"
assay_value = 0.988

[[record]]
compound = "COS(C)(=O)=O"
parameter_measured = "normalized growth"
assay_value = 0.989

[[record]]
compound = "CCOC(N)=O"
parameter_measured = "normalized growth"
assay_value = 0.991

[[record]]
compound = "C#C[C@]1(O)CCC2C3CCc4cc(O)ccc4C3CC[C@@]21C (some centres not stated)"
parameter_measured = "normalized growth"
assay_value = 0.987

[[record]]
compound = "c1ccc2[nH]c(-c3cscn3)nc2c1"
parameter_measured = "normalized growth"
assay_value = 0.991

[[record]]
compound = "CS(=O)(=O)OCCCCOS(C)(=O)=O"
parameter_measured = "normalized growth"
assay_value = 1.01

[[record]]
compound = "CCOC(=O)c1ccc(N)cc1"
parameter_measured = "normalized growth"
assay_value = 0.989

[[record]]
compound = "C[C@]12CCC3c4ccc(OS(=O)(=O)O)cc4CCC3C1CCC2=O (some centres not stated)"
parameter_measured = "normalized growth"
assay_value = 0.987

[[record]]
compound = "C[C@H](COc1ccccc1)N[C@H](C)[C@H](O)c1ccc(O)cc1"
parameter_measured = "normalized growth"
assay_value = 0.993

[[record]]
compound = "COc1ccc(/C=C/c2cc(O)cc(O)c2)cc1"
parameter_measured = "normalized growth"
assay_value = 1

[[record]]
compound = "CCn1cc(C(=O)O)c(=O)c2cc3c(cc21)OCO3"
parameter_measured = "normalized growth"
assay_value = 0.975

[[record]]
compound = "O=C(NC(Cc1cc(=O)[nH]c2ccccc12)C(=O)O)c1ccc(Cl)cc1 (configuration not stated)"
parameter_measured = "normalized growth"
assay_value = 1.01

[[record]]
compound = "N[C@@H](CCC(=O)N[C@@H](CCSC(CC(=O)O)C(=O)O)C(=O)NCC(=O)O)C(=O)O (some centres not stated)"
parameter_measured = "normalized growth"
assay_value = 0.999

[[record]]
compound = "CC1=C(/C=C/C(C)=C/C=C/C(C)=C/C=C/C=C(C)/C=C/C=C(C)/C=C/C2=C(C)CCCC2(C)C)C(C)(C)CCC1"
parameter_measured = "normalized growth"
assay_value = 1

[[record]]
compound = "CC(COc1ccccc1)N(CCCl)Cc1ccccc1 (configuration not stated)"
parameter_measured = "normalized growth"
assay_value = 0.979

[[record]]
compound = "C[C@@H]1CC2C3CCC4=CC(=O)C=C[C@]4(C)[C@@]3(F)[C@@H](O)C[C@]2(C)[C@@]1(O)C(=O)COP(=O)(O)O (some centres not stated)"
parameter_measured = "normalized growth"
assay_value = 0.99

[[record]]
compound = "Nc1nc2ncc(CNc3ccc(C(=O)N[C@@H](CCC(=O)O)C(=O)O)cc3)nc2c(=O)[nH]1"
parameter_measured = "normalized growth"
assay_value = 0.996

[[record]]
compound = "COc1cc(C)c2c(c1C=O)Oc1c(c(C)c(O)c3c1C(O)OC3=O)OC2=O (configuration not stated)"
parameter_measured = "normalized growth"
assay_value = 1.01

